target: rat A2A AR (Rattus norvegicus, UniProt P30543)
Sequence (P30543 whole entry): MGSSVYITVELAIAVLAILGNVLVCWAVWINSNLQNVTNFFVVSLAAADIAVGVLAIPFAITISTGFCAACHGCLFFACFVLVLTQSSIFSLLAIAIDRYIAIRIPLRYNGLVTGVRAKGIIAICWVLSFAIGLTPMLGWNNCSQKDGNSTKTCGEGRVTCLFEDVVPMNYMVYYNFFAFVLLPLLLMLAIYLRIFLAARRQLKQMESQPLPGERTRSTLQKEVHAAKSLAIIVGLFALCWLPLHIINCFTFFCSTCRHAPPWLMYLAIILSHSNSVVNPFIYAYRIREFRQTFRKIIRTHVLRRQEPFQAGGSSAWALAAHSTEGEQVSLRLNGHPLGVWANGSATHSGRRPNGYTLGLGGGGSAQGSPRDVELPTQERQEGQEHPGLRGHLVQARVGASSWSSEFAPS
observable: Ki

Test item CCCCCC(=O)Nc1nc(SC)nc2nc(-c3ccco3)nn12 ; rat A2A AR (Rattus norvegicus, UniProt P30543); reported Ki was 180 to 400 nM
